Can you tell me ID for the items I'm about to list?
- Species: Mus musculus
- protocolDescription: Percent of injected 238-Plutonium(IV) in mice kidneys at 24 h
- Type: ADME, organism-based, Kidney
- conditionParameters: in vivo

Example entries and their recorded answers appear below.
O=C(NCCCN(CCCCN(CCCNC(=O)c1cccc(=O)n1O)C(=O)c1cccc(=O)n1O)C(=O)c1cccc(=O)n1O)c1cccc(=O)n1O
0.2%
O=C(NCCCN(CCCCN(CCCNC(=O)c1cc(S(=O)(=O)O)cc(O)c1O)C(=O)c1cc(S(=O)(=O)O)cc(O)c1O)C(=O)c1cc(S(=O)(=O)O)cc(O)c1O)c1cc(S(=O)(=O)O)cc(O)c1O
0.9%

--- query ---
Req: Consider the compound "O=C(NCCCN(CCCCN(CCCNC(=O)c1cccc(O)c1O)C(=O)c1cccc(=O)n1O)C(=O)c1cccc(=O)n1O)c1cccc(O)c1O" and give its measured ID.
Resp: 2%

----------
- protocolDescription: Removal of 238-Plutonium(IV) in feces at 24 hr (orally administered)
- Format: ADME
- conditionParameters: po
observable: ID (%)
Answers are plain numbers, in %.

O=C(NCCCN(CCCCN(CCCNC(=O)c1cccc(O)c1O)C(=O)c1cccc(=O)n1O)C(=O)c1cccc(=O)n1O)c1cccc(O)c1O
13
O=C(NCCCN(CCCCN(CCCNC(=O)c1cccc(O)c1O)C(=O)c1cccc(=O)n1O)C(=O)c1cccc(O)c1O)c1cccc(O)c1O
4.5

Could you report ID for every entry in the following list?
1. O=C(NCCCN(CCCCN(CCCNC(=O)c1cccc(=O)n1O)C(=O)c1cccc(=O)n1O)C(=O)c1cccc(=O)n1O)c1cccc(=O)n1O
2. O=C(O)c1ccc(C(=O)NCCCN(CCCCN(CCCNC(=O)c2ccc(C(=O)O)c(O)c2O)C(=O)c2ccc(C(=O)O)c(O)c2O)C(=O)c2ccc(C(=O)O)c(O)c2O)c(O)c1O

Resp:
1. 50
2. 3.3

----------
- Species on record: Mus musculus
- protocolDescription: Percent of injected 238-Plutonium(IV) in mice skeleton at 24 h
- Format: ADME, organism-based
- conditionParameters: in vivo
Can you tell me ID for the items I'm about to list?
One number for each entry, in %.

Example entries and their recorded answers appear below.
O=C(NCCCN(CCCCN(CCCNC(=O)c1cc(S(=O)(=O)O)cc(O)c1O)C(=O)c1cc(S(=O)(=O)O)cc(O)c1O)C(=O)c1cc(S(=O)(=O)O)cc(O)c1O)c1cc(S(=O)(=O)O)cc(O)c1O
6.7
O=C(NCCCN(CCCCN(CCCNC(=O)c1cccc(O)c1O)C(=O)c1cccc(O)c1O)C(=O)c1cccc(O)c1O)c1cccc(O)c1O
18
O=C(NCCCN(CCCCN(CCCNC(=O)c1cccc(O)c1O)C(=O)c1cccc(=O)n1O)C(=O)c1cccc(O)c1O)c1cccc(O)c1O
13
O=C(O)c1ccc(C(=O)NCCCN(CCCCN(CCCNC(=O)c2ccc(C(=O)O)c(O)c2O)C(=O)c2ccc(C(=O)O)c(O)c2O)C(=O)c2ccc(C(=O)O)c(O)c2O)c(O)c1O
11
O=C(NCCCN(CCCCN(CCCNC(=O)c1cccc(=O)n1O)C(=O)c1cccc(=O)n1O)C(=O)c1cccc(=O)n1O)c1cccc(=O)n1O
7.5

--- query ---
Req: Consider the molecule "O=C(NCCCN(CCCCN(CCCNC(=O)c1cccc(O)c1O)C(=O)c1cccc(=O)n1O)C(=O)c1cccc(=O)n1O)c1cccc(O)c1O" and give its measured ID.
Resp: 12

----------
- protocolDescription: Removal of 238-Plutonium(IV) in gastrointestinal (GI) contents at 24 hr (orally administered)
- Assay type: ADME
- conditionParameters: po
Can you tell me ID for the items I'm about to list?

O=C(O)c1ccc(C(=O)NCCCN(CCCCN(CCCNC(=O)c2ccc(C(=O)O)c(O)c2O)C(=O)c2ccc(C(=O)O)c(O)c2O)C(=O)c2ccc(C(=O)O)c(O)c2O)c(O)c1O
1%
O=C(NCCCN(CCCCN(CCCNC(=O)c1cccc(O)c1O)C(=O)c1cccc(=O)n1O)C(=O)c1cccc(O)c1O)c1cccc(O)c1O
1.8%
O=C(NCCCN(CCCCN(CCCNC(=O)c1cccc(O)c1O)C(=O)c1cccc(=O)n1O)C(=O)c1cccc(=O)n1O)c1cccc(O)c1O
1.9%

--- query ---
Req: Consider the molecule "O=C(NCCCN(CCCCN(CCCNC(=O)c1cccc(=O)n1O)C(=O)c1cccc(=O)n1O)C(=O)c1cccc(=O)n1O)c1cccc(=O)n1O" and give its measured ID.
Resp: 1.4%

----------
Can you tell me ID for the items I'm about to list?
- protocolDescription: Removal of 238-Plutonium(IV) in feces at 24 h
- Format: ADME
Provide the measurement as a number trailed by its unit.

Example entries and their recorded answers appear below.
O=C(NCCCN(CCCCN(CCCNC(=O)c1cccc(O)c1O)C(=O)c1cccc(=O)n1O)C(=O)c1cccc(=O)n1O)c1cccc(O)c1O
31%
O=C(NCCCN(CCCCN(CCCNC(=O)c1cccc(O)c1O)C(=O)c1cccc(O)c1O)C(=O)c1cccc(O)c1O)c1cccc(O)c1O
28%

Req: Consider the compound "O=C(O)c1ccc(C(=O)NCCCN(CCCCN(CCCNC(=O)c2ccc(C(=O)O)c(O)c2O)C(=O)c2ccc(C(=O)O)c(O)c2O)C(=O)c2ccc(C(=O)O)c(O)c2O)c(O)c1O" and give its measured ID.
Resp: 4.8%

----------
- Tested on: Mus musculus
- protocolDescription: Percent of injected 238-Plutonium(IV) in mice whole body at 24 hr (orally administered)
- Type: ADME, organism-based
- conditionParameters: in vivo, po
observable: ID (%)
Give bare numbers, in %.

Example entries and their recorded answers appear below.
O=C(NCCCN(CCCCN(CCCNC(=O)c1cccc(O)c1O)C(=O)c1cccc(=O)n1O)C(=O)c1cccc(O)c1O)c1cccc(O)c1O
82
O=C(NCCCN(CCCCN(CCCNC(=O)c1cccc(=O)n1O)C(=O)c1cccc(=O)n1O)C(=O)c1cccc(=O)n1O)c1cccc(=O)n1O
24
O=C(O)c1ccc(C(=O)NCCCN(CCCCN(CCCNC(=O)c2ccc(C(=O)O)c(O)c2O)C(=O)c2ccc(C(=O)O)c(O)c2O)C(=O)c2ccc(C(=O)O)c(O)c2O)c(O)c1O
56

Req: Consider the molecule "O=C(NCCCN(CCCCN(CCCNC(=O)c1cccc(O)c1O)C(=O)c1cccc(=O)n1O)C(=O)c1cccc(=O)n1O)c1cccc(O)c1O" and give its measured ID.
Resp: 68

----------
- Tested on: Mus musculus
- protocolDescription: Percent of injected 238-Plutonium(IV) in mice liver at 24 hr (orally administered)
- Format: ADME, organism-based
- conditionParameters: in vivo, po
observable: ID (%)
Give bare numbers, in %.

Example entries and their recorded answers appear below.
O=C(NCCCN(CCCCN(CCCNC(=O)c1cccc(O)c1O)C(=O)c1cccc(=O)n1O)C(=O)c1cccc(O)c1O)c1cccc(O)c1O
43
O=C(NCCCN(CCCCN(CCCNC(=O)c1cccc(O)c1O)C(=O)c1cccc(=O)n1O)C(=O)c1cccc(=O)n1O)c1cccc(O)c1O
35
O=C(NCCCN(CCCCN(CCCNC(=O)c1cccc(=O)n1O)C(=O)c1cccc(=O)n1O)C(=O)c1cccc(=O)n1O)c1cccc(=O)n1O
11

Req: Consider the molecule "O=C(O)c1ccc(C(=O)NCCCN(CCCCN(CCCNC(=O)c2ccc(C(=O)O)c(O)c2O)C(=O)c2ccc(C(=O)O)c(O)c2O)C(=O)c2ccc(C(=O)O)c(O)c2O)c(O)c1O" and give its measured ID.
Resp: 19

----------
- System: Mus musculus
- protocolDescription: Percent of injected 238-Plutonium(IV) in mice skeleton at 24 hr (orally administered)
- Format: ADME, organism-based
- conditionParameters: in vivo, po
Can you tell me ID for the items I'm about to list?
One number for each entry, in %.

Example entries and their recorded answers appear below.
O=C(NCCCN(CCCCN(CCCNC(=O)c1cccc(O)c1O)C(=O)c1cccc(=O)n1O)C(=O)c1cccc(=O)n1O)c1cccc(O)c1O
26
O=C(NCCCN(CCCCN(CCCNC(=O)c1cccc(=O)n1O)C(=O)c1cccc(=O)n1O)C(=O)c1cccc(=O)n1O)c1cccc(=O)n1O
12
O=C(NCCCN(CCCCN(CCCNC(=O)c1cccc(O)c1O)C(=O)c1cccc(=O)n1O)C(=O)c1cccc(O)c1O)c1cccc(O)c1O
30

--- query ---
Req: Hello, I am looking for reported ID with Mus musculus for "O=C(O)c1ccc(C(=O)NCCCN(CCCCN(CCCNC(=O)c2ccc(C(=O)O)c(O)c2O)C(=O)c2ccc(C(=O)O)c(O)c2O)C(=O)c2ccc(C(=O)O)c(O)c2O)c(O)c1O" . Could you help?
Resp: 32

----------
- Organism: Mus musculus
- protocolDescription: Percent of injected 238-Plutonium(IV) in mice soft tissue at 24 h
- Assay type: ADME, organism-based
- conditionParameters: in vivo
Classify: 1 when ID is strictly less than 3%; 0 when ID is not.

Please review the entries below; each comes with its answer.
O=C(NCCCN(CCCCN(CCCNC(=O)c1cccc(=O)n1O)C(=O)c1cccc(=O)n1O)C(=O)c1cccc(=O)n1O)c1cccc(=O)n1O
1
O=C(O)c1ccc(C(=O)NCCCN(CCCCN(CCCNC(=O)c2ccc(C(=O)O)c(O)c2O)C(=O)c2ccc(C(=O)O)c(O)c2O)C(=O)c2ccc(C(=O)O)c(O)c2O)c(O)c1O
0
O=C(NCCCN(CCCCN(CCCNC(=O)c1cc(S(=O)(=O)O)cc(O)c1O)C(=O)c1cc(S(=O)(=O)O)cc(O)c1O)C(=O)c1cc(S(=O)(=O)O)cc(O)c1O)c1cc(S(=O)(=O)O)cc(O)c1O
1
O=C(NCCCN(CCCCN(CCCNC(=O)c1cccc(O)c1O)C(=O)c1cccc(O)c1O)C(=O)c1cccc(O)c1O)c1cccc(O)c1O
0

Req: ID under 3%? Item: "O=C(NCCCN(CCCCN(CCCNC(=O)c1cccc(O)c1O)C(=O)c1cccc(=O)n1O)C(=O)c1cccc(O)c1O)c1cccc(O)c1O"
Resp: 0

Req: ID under 3%? Item: "O=C(NCCCN(CCCCN(CCCNC(=O)c1cccc(O)c1O)C(=O)c1cccc(=O)n1O)C(=O)c1cccc(=O)n1O)c1cccc(O)c1O"
Resp: 1
